Listing of recorded IC50 by entry.
measuredTarget: TYK2 (Homo sapiens, UniProt P29597)
Sequence (P29597 whole entry): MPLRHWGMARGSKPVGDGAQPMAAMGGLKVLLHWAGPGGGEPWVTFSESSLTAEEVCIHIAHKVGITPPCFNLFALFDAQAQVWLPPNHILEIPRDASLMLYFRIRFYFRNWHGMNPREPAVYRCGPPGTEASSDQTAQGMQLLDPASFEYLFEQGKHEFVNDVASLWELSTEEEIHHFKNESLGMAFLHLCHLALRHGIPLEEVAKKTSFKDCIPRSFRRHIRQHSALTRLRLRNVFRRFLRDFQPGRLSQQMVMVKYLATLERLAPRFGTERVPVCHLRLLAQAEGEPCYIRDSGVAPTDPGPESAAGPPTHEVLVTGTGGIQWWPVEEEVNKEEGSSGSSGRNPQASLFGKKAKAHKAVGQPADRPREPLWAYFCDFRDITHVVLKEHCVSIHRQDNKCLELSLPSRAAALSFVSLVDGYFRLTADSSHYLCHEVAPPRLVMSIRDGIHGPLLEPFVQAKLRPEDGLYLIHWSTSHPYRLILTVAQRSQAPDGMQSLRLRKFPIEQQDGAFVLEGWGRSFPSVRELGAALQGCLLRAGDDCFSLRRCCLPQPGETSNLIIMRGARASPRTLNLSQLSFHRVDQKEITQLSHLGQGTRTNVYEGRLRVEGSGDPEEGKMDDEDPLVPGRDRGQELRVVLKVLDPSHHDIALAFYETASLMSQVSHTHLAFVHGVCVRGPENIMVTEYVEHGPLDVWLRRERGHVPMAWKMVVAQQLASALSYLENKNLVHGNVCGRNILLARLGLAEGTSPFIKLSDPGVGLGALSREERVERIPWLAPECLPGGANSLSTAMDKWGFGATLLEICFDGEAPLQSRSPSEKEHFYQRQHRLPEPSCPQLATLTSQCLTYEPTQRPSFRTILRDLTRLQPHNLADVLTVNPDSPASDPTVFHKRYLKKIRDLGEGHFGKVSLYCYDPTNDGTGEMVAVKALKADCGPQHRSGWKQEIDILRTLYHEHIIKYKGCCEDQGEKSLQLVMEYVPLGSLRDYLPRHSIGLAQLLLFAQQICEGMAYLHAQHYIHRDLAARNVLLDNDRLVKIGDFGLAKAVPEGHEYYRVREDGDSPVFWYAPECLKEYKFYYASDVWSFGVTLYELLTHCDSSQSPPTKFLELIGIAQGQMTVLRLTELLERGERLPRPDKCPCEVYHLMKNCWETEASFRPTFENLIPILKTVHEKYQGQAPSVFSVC
test: TYK2 kinase inhibition (Table A1)
Assay type: biochemical
testParameters: Table D1
Structures can show the parent of a compound that is named as a salt.
resultType: IC50 (nM)

- CS(=O)(=O)N1CCN(c2cc(-c3cc4cc(c3)Nc3ncc(Cl)c(n3)Nc3cccc(c3)OCC4)ccn2)CC1 [Example D36, bis(trifluoroacetate)]: 4.9
- O=C(C[C@@H]1CCCNC1)Nc1ccc2cc1CCc1cncc(c1)Nc1ncc(Cl)c(n1)N2: 23
- Clc1cnc2nc1Nc1cccc(c1)OCCSc1cccc(c1)N2 [Example D15, trifluoroacetate]: 88
- Cc1nc(S(=O)(=O)Nc2cc3cc(c2)OCCSc2cccc(c2)Nc2nc(ncc2Cl)N3)cn1C [Example D69, bis(trifluoroacetate)]: 8.4

====

measuredTarget: UniProt:P29597
test: TYK2 kinase inhibition (Table A1)
Assay type: biochemical
pIC50: −log10 of the molar value. Where a name gives a salt, the structure may show the parent alone.
Quick rule: pIC50 of at least 7 means rule met, below that means rule not met.

* N#Cc1cccc(C(=O)N2CCC(CC(=O)Nc3ccc4cc3CCc3cccc(c3)Nc3ncc(Cl)c(n3)N4)CC2)c1 [Example A187, trifluoroacetate] | rule not met
* Cc1nc(S(=O)(=O)N2CCC(CC(=O)Nc3ccc4cc3CCc3cncc(c3)Nc3ncc(Cl)c(n3)N4)CC2)cn1C [Example A230, bis(trifluoroacetate)] | rule not met
* CC(C)NC(=O)N1CCC(CC(=O)Nc2ccc3cc2CCc2cncc(c2)Nc2ncc(Cl)c(n2)N3)CC1 [Example A99, bis(trifluoroacetate)] | rule met
* O=C(CC1CCNCC1)Nc1ccc2cc1CCc1cccc(c1)Nc1ncc(Cl)c(n1)N2 [Example A46, bis(trifluoroacetate)] | rule met
* N#Cc1cc(F)c(Cl)nc1N1CCC(CC(=O)Nc2ccc3cc2CCc2cncc(c2)Nc2ncc(Cl)c(n2)N3)CC1 [Example A241, tris(trifluoroacetate)] | rule not met
* COc1cccc(NC(=O)N2CCC(CC(=O)Nc3ccc4cc3CCc3cncc(c3)Nc3ncc(Cl)c(n3)N4)CC2)c1 [Example A153, bis(trifluoroacetate)] | rule met
* Cc1cc(C(=O)N2CCC(COc3ccc4cc3CCc3cncc(c3)Nc3ncc(Cl)c(n3)N4)C2)no1 (stereo not shown) [Example C58, bis(trifluoroacetate)] | rule not met
* O=C(CC1CCN(C(=O)c2nc[nH]n2)CC1)Nc1ccc2cc1CCc1cncc(c1)Nc1ncc(Cl)c(n1)N2 [Example A136, bis(trifluoroacetate)] | rule met
* N#Cc1c(N2CCC(CC(=O)Nc3ccc4cc3CCc3cncc(c3)Nc3ncc(Cl)c(n3)N4)CC2)cccc1C(F)(F)F [Example A235, tris(trifluoroacetate)] | rule not met
* O=C(c1cccs1)N1Cc2cccc(c2)Nc2ncc(Cl)c(n2)Nc2cccc1c2 [Example C25] | rule not met

====

measuredTarget: human JAK2 (a.a. 828-1132) (Homo sapiens, UniProt O60674)
Construct: JAK2 (a.a. 828-1132); His tag (N); made in house; host or cells: insect cells (baculovirus)
Sequence (O60674 828-1132): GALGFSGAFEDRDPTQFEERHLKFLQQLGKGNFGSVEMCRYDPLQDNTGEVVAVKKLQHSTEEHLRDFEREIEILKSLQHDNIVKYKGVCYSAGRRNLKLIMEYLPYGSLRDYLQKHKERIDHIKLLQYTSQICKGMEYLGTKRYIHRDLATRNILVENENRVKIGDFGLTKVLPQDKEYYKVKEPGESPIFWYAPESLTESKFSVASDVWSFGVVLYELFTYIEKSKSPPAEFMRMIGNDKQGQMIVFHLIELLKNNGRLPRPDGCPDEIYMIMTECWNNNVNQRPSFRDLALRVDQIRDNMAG
test: In vitro JAK kinase assay (HTRF, phosphorylation of a biotinylated peptide), JAK2
Assay type: biochemical
testParameters: method AA1 (30 μM ATP) or AA2 (1000 μM ATP), not stated per value
Structures can show the parent of a compound that is named as a salt.
As shown below, each of these molecules has a reported IC50 value.
resultType: IC50 (nM)

- COc1cccc(N2CCC(CC(=O)Nc3ccc4cc3CCc3cncc(c3)Nc3ncc(Cl)c(n3)N4)CC2)c1C#N [Example A233, tris(trifluoroacetate)]: 19
- O=C(Nc1ccccc1)N[C@@H](CO)C(=O)Nc1ccc2cc1CCc1cccc(c1)Nc1ncc(Cl)c(n1)N2 [Example A68, trifluoroacetate]: 2.8
- O=C(CC1CCN(c2nc3cccnc3o2)CC1)Nc1ccc2cc1CCc1cncc(c1)Nc1ncc(Cl)c(n1)N2 [Example A158, tris(trifluoroacetate)]: 244
- NCC(=O)Nc1ccc2cc1CCc1cccc(c1)Nc1ncc(Cl)c(n1)N2 [Example A107, bis(trifluoroacetate)]: 10
- O=C(CC1CCN(C(=O)c2ccc(F)cc2F)CC1)Nc1ccc2cc1CCc1cncc(c1)Nc1ncc(Cl)c(n1)N2 [Example A194, bis(trifluoroacetate)]: 150
- CC(=O)N1CCC(CC(=O)Nc2ccc3cc2CCc2cncc(c2)Nc2ncc(Cl)c(n2)N3)C1 (stereo not drawn) [Example A94, bis(trifluoroacetate)]: 17

Cited source for all entries: patent US8871753B2
